# MEASURED_ON: Epidermal growth factor receptor (Homo sapiens)
# PROTOCOL_SUMMARY: Inhibition of wild type EGFR (unknown origin) by ELISA
pIC50: −log10 of the molar value.
OUTCOME_MEASURE: pIC50

- C=CC(=O)Nc1cc(Nc2nccc(-c3cn(CCCO)c4ccccc34)n2)c(OC)cc1F: 6.55
- CCC(=O)Nc1cc(Nc2nccc(-c3c[nH]c4c(CCO)cccc34)n2)c(OC)cc1F: < 6.00

Find the recorded pIC50 belonging to CCC(=O)Nc1cc(Nc2nccc(-c3cn(CCCO)c4ccccc34)n2)c(OC)cc1N(C)CCN(C)C and report it.
< 6.00

pIC50 lookup needed for CCC(=O)Nc1cc(Nc2nccc(-c3cn(CCO)c4ccccc34)n2)c(OC)cc1F , thanks.
< 6.00

----------
# MEASURED_ON: Epidermal growth factor receptor (Homo sapiens, UniProt P00533, C797S/L858R/T790M)
# Sequence (P00533 25-1210 T790M/C797S/L858R limits assumed): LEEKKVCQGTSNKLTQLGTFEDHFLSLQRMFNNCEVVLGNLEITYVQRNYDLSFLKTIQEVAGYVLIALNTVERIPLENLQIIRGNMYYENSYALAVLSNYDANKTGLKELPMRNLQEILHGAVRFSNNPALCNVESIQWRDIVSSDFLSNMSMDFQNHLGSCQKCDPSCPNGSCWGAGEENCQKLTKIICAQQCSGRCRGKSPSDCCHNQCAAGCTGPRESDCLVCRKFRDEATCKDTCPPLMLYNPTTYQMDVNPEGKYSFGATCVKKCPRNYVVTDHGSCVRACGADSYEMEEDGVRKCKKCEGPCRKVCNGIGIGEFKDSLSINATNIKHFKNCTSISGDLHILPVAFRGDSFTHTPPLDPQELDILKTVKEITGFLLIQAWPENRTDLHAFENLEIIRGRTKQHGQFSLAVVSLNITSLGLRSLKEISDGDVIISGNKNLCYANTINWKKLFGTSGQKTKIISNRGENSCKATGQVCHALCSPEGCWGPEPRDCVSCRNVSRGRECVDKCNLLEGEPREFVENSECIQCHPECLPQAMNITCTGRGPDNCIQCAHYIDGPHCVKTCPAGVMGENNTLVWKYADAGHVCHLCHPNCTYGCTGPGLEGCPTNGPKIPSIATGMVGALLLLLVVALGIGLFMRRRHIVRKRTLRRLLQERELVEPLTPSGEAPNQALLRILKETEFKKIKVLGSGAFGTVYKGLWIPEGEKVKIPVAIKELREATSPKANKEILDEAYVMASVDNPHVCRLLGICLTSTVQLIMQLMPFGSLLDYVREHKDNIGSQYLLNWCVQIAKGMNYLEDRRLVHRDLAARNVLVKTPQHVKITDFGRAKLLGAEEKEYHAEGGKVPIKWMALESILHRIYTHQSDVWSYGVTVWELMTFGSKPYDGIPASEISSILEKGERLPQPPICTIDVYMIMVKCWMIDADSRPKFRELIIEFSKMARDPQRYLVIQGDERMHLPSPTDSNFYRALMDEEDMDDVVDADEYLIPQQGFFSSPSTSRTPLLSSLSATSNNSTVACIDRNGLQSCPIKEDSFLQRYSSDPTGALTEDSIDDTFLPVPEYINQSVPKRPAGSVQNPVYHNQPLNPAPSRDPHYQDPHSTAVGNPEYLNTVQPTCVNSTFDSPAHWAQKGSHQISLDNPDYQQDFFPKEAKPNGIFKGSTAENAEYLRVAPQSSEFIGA
# PROTOCOL_SUMMARY: Inhibition of EGFR L858R/T790M/C797S mutant (unknown origin) by ELISA
pIC50: −log10 of the molar value.
OUTCOME_MEASURE: pIC50

- CCC(=O)Nc1cc(Nc2nccc(-c3cn(CCCO)c4ccccc34)n2)c(OC)cc1N(C)CCN(C)C: 6.19
- CCC(=O)Nc1cc(Nc2nccc(-c3cn(CCCO)c4ccc(F)cc34)n2)c(OC)cc1F: 6.48

a = CCC(=O)Nc1cc(Nc2nccc(-c3cn(CCCO)c4ccccc34)n2)c(OC)cc1F
b = COc1cc(N(C)CCN(C)C)ccc1Nc1nccc(-c2cn(CCCO)c3ccccc23)n1
For the two items a and b , which reports the higher pIC50 value? Answer with the label corresponding to your selection.
b
(b: 6.66, a: 6.37)

----------
# MEASURED_ON: Epidermal growth factor receptor (Homo sapiens, UniProt P00533, L858R/T790M)
# Sequence (P00533 25-1210 T790M/L858R limits assumed): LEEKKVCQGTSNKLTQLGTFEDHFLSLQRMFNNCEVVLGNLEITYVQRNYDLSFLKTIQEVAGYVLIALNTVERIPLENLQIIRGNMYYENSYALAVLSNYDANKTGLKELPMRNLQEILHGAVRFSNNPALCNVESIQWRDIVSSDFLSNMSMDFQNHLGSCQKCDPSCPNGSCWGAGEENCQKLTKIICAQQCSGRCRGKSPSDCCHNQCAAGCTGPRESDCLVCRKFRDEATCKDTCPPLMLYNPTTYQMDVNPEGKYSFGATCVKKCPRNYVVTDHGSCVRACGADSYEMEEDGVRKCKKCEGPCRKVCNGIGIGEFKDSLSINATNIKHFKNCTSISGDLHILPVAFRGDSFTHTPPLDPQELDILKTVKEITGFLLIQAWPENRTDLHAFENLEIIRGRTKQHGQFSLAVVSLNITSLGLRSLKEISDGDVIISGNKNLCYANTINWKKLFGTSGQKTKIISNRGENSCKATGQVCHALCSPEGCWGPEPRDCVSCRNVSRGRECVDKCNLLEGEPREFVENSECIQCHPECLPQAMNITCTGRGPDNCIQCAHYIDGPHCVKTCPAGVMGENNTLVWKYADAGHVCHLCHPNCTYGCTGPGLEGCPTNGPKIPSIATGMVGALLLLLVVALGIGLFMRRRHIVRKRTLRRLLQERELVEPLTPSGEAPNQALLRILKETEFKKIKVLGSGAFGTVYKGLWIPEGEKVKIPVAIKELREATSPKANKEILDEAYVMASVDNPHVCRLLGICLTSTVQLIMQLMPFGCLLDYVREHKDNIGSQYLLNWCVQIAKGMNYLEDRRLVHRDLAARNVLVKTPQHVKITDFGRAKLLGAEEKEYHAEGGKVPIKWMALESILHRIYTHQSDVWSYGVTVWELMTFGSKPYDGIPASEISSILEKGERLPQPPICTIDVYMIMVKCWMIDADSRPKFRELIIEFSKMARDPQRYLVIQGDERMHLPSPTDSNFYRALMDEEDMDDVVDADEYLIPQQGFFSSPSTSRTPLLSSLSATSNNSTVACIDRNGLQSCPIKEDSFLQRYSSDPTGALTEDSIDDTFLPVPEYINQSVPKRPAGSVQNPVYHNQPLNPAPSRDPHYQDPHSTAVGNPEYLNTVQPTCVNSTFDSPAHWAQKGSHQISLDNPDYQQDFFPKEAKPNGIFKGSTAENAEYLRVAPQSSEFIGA
# PROTOCOL_SUMMARY: Inhibition of EGFR L858R/T790M mutant (unknown origin) by ELISA
OUTCOME_MEASURE: IC50 (nM)

* CCC(=O)Nc1cc(Nc2nccc(-c3cn(CCCO)c4ccc(F)cc34)n2)c(OC)cc1F | 142
* CCC(=O)Nc1cc(Nc2nccc(-c3cn(CCO)c4ccccc34)n2)c(OC)cc1F | 170

a = CCC(=O)Nc1cc(Nc2nccc(-c3cn(CCCO)c4ccccc34)n2)c(OC)cc1N(C)CCN(C)C
b = C=CC(=O)Nc1cc(Nc2nccc(-c3cn(CCCO)c4ccccc34)n2)c(OC)cc1F
Between these two entries, a and b , state which has the higher IC50. # respond with the chosen item's label
a

----------
# System: BaF3
# PROTOCOL_SUMMARY: Antiproliferative activity against mouse BAF3 cells harboring EGFR 19D/T790M/C797S mutant assessed as reduction in cell viability by CCK8 assay
# Assay type: functional, cell-based
The entries below are paired with their reported pIC50.
# pIC50 is unitless: minus log10 of the molar concentration; print number only

- COc1cc(N(C)CCN(C)C)ccc1Nc1nccc(-c2cn(CCCO)c3ccccc23)n1: 5.07

Switching to the query record.
Name the recorded pIC50 for C=CC(=O)Nc1cc(Nc2nccc(-c3cn(C)c4ccccc34)n2)c(OC)cc1N(C)CCN(C)C .
5.26

----------
# MEASURED_ON: Epidermal growth factor receptor (Homo sapiens, UniProt P00533, C797S/EX19DEL/T790M)
# Sequence (P00533 whole entry, looked up, stated change not applied): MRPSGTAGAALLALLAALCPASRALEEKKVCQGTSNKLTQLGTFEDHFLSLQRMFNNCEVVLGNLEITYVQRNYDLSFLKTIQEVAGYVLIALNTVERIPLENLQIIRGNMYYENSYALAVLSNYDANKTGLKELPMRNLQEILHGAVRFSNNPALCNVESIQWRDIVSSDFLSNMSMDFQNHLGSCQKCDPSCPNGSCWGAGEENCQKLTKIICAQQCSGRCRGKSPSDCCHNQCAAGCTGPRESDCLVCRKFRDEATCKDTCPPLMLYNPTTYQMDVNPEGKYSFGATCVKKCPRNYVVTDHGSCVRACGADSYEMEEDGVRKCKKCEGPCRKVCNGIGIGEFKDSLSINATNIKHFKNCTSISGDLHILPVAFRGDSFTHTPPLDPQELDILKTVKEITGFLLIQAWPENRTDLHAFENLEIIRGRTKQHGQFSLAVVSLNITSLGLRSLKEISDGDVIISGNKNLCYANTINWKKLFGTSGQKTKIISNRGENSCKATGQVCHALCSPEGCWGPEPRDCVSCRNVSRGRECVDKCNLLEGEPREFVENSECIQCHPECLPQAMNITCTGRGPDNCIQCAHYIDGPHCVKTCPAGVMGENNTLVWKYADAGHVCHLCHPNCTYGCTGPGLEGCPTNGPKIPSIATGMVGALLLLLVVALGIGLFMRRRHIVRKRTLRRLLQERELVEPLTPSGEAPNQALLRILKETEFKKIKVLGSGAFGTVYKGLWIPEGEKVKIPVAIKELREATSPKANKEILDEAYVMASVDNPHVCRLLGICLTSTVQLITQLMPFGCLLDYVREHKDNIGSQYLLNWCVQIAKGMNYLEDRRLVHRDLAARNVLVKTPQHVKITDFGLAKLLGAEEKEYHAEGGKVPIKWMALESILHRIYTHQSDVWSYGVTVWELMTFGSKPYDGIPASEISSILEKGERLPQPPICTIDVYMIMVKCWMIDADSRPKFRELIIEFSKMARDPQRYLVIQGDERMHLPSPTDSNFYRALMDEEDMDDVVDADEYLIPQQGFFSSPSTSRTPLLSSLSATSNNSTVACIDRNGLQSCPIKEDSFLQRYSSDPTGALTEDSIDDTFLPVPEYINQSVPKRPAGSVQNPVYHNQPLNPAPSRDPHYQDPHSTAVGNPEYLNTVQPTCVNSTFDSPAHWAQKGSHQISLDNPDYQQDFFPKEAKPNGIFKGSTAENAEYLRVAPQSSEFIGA
# PROTOCOL_SUMMARY: Inhibition of EGFR 19D/T790M/C797S mutant (unknown origin) by ELISA
OUTCOME_MEASURE: IC50 (nM)

* CCC(=O)Nc1cc(Nc2nccc(-c3cn(CCCO)c4ccccc34)n2)c(OC)cc1F | 72.5
* C=CC(=O)Nc1cc(Nc2nccc(-c3cn(CCCO)c4ccccc34)n2)c(OC)cc1F | 17.9
* CCC(=O)Nc1cc(Nc2nccc(-c3cn(CCO)c4ccccc34)n2)c(OC)cc1F | 80.5

1 = COc1cc(N(C)CCN(C)C)ccc1Nc1nccc(-c2cn(CCCO)c3ccccc23)n1
2 = CCC(=O)Nc1cc(Nc2nccc(-c3cn(CCCO)c4ccccc34)n2)c(OC)cc1N(C)CCN(C)C
3 = CCC(=O)Nc1cc(Nc2nccc(-c3cn(CCCO)c4ccc(F)cc34)n2)c(OC)cc1F
4 = CCC(=O)Nc1cc(Nc2nccc(-c3c[nH]c4c(CCO)cccc34)n2)c(OC)cc1F
List items by IC50 in falling order. Output the labels ranked as instructed.
4, 2, 3, 1
